The measured values listed here are drawn from patent US7713994B2.

target: cyclin D1/cdk 4 enzyme (Homo sapiens, UniProt P11802); construct: made in house; host or cells: Sf9 insect cells, recombinant baculovirus; experiment: CDK4 ELISA kinase assay (phospho-Rb ser 795 detection); type: biochemical; conditions: In Vitro Enzyme Assays, 200 μM ATP, read-out: CDK4 IC50
Sequence (P11802 whole entry, species assumed): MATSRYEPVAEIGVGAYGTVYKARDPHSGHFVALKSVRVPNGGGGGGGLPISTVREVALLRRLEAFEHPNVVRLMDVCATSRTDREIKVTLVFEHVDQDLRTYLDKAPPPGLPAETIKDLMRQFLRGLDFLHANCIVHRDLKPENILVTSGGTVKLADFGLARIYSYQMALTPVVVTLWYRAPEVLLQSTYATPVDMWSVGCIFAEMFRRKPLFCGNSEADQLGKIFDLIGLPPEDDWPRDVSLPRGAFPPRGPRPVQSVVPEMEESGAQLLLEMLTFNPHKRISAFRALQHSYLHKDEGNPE
Sequence (P24385 whole entry partner, species assumed): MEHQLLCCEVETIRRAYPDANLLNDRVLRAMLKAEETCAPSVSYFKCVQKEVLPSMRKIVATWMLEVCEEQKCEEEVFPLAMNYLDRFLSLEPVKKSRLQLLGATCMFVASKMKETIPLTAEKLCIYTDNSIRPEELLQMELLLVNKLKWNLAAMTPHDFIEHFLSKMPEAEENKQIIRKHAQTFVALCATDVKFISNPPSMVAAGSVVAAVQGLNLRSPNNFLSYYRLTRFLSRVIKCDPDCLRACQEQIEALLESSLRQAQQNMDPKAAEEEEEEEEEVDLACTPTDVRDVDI
metric: IC50 (nM)

>>> value("C[C@@H]1CN(c2ccc(N/C=C3\\C(=O)NC(=O)c4ccc(-c5ccoc5)cc43)cc2F)C[C@H](C)N1")
170
>>> value("O=C1NC(=O)c2ccc(Br)cc2/C1=C/Nc1ccc(-n2ccnc2)cc1")
22600
>>> value("COC1CCN(Cc2ccc(N/C=C3\\C(=O)NC(=O)c4ccc(-c5ccc(F)cc5)cc43)cc2)CC1")
140
>>> value("CCN(CC)CCCCN/C=C1\\C(=O)NC(=O)c2ccc(Br)cc21")
2600
